All values here come from PubChem BioAssay AID1745844.

- System: rodent lifetime carcinogenesis bioassay, tumor incidence TD50
- assay-explanation: carcinogenic potency in animals, long-term in vivo studies, CPDB compilation (AID 1745844)
- experimental-parameters: mouse; strain B6C3F1; females; in drinking water; site: liver; lesion: hepatocellular adenoma + hepatocellular carcinoma + neoplastic nodule; dosed 90 weeks; study length 90 weeks
metric-name: TD50 (mg/kg/day)

{"molecular-string": "C1COCCO1", "measured-result": 594}

---

- Tested on: rodent lifetime carcinogenesis bioassay, tumor incidence TD50
- assay-explanation: carcinogenic potency in animals, long-term in vivo studies, CPDB compilation (AID 1745844)
- experimental-parameters: rat; strain Wistar; males; in feed; site: urinary bladder; lesion: transitional-cell carcinoma; dosed 75 weeks; study length 75 weeks

{"molecular-string": "COc1cc2c(cc1N)oc1ccccc12", "target-system": "rodent lifetime carcinogenesis bioassay, tumor incidence TD50", "TD50": "78.2 mg/kg/day"}
